- measurement-description: compound fluorescence in toxin protease inhibitor counterscreen, primary screen, artefact control for toxin protease inhibitor project, biochemical, multiplex microsphere, HTS (AID 624483)
- experimental-parameters: compound autofluorescence counterscreen, microsphere flow cytometry; stronger effect = higher value
Screen size: about 360,000 compounds; about 11,000 (3.1%) were called active. About 2% were inconclusive and are not listed. Shown is part of a subset that was picked to be rich in actives.
fluorescence intensity values by entry
measurement-label: fluorescence intensity

[
  {
    "compound": "CS(=O)(=O)N1CCN(c2ccc(C(=O)NC3C4CC5CC(C4)CC3C5)cc2[N+](=O)[O-])CC1 (stereo not given)",
    "measurement-label": "fluorescence intensity",
    "experimental-result": 17000
  },
  {
    "compound": "CCOC(=O)C1=CC[C@@H](c2ccccc2)N(S(=O)(=O)c2ccc(C)cc2)[C@H]1c1ccc(CC)cc1",
    "measurement-label": "fluorescence intensity",
    "experimental-result": 5350
  },
  {
    "compound": "Cc1cccc(N2CCN(c3ccc(C(N)=O)cc3[N+](=O)[O-])CC2)c1C",
    "measurement-label": "fluorescence intensity",
    "experimental-result": 4080
  },
  {
    "compound": "Cc1ccc(C(=O)c2ccc(N3CCN(C)CC3)c([N+](=O)[O-])c2)cc1",
    "measurement-label": "fluorescence intensity",
    "experimental-result": 2490
  },
  {
    "compound": "COc1cc(C(O)c2nc(-c3cccc(C(=O)O)c3)cs2)ccc1F (stereo not given)",
    "measurement-label": "fluorescence intensity",
    "experimental-result": 3440
  }
]

----------
Quick reference for fluorescence intensity among some compounds
- measurement-description: compound fluorescence in toxin protease inhibitor counterscreen, primary screen, artefact control for toxin protease inhibitor project, biochemical, multiplex microsphere, HTS (AID 624483)
- experimental-parameters: compound autofluorescence counterscreen, microsphere flow cytometry; stronger effect = higher value
In all, about 360,000 compounds went through this assay and about 11,000 (3.1%) were called active. Inconclusive results (about 2%) are left out. The sample holds actives, similar compounds and a random draw of the others, so the mix is not that of the screen.

[
  {
    "compound": "O=C1C(=O)N(c2ccccc2)c2ccccc21",
    "fluorescence intensity": 22200
  },
  {
    "compound": "CS(=O)(=O)c1ccc2c(c1)SC1=NC(=O)/C(=C/c3ccco3)C(=N)N12",
    "fluorescence intensity": 20000
  },
  {
    "compound": "Cc1ccc(CN(Cc2cccnc2)C(=S)Nc2cc(Cl)ccc2C)cc1",
    "fluorescence intensity": 4690
  },
  {
    "compound": "O=C1CN(C(=O)COC(=O)/C=C/c2ccc(F)cc2)c2ccccc2N1",
    "fluorescence intensity": 2990
  },
  {
    "compound": "Clc1cccc(Cc2c(-c3cccc(Cl)c3)nc3ccc(Cl)cn23)c1",
    "fluorescence intensity": 8680
  },
  {
    "compound": "CS(=O)(=O)C1=NN2C(=N)/C(=C\\c3ccc(OCCOc4ccccc4)cc3)C(=O)N=C2S1",
    "fluorescence intensity": 3680
  },
  {
    "compound": "CCCC(=O)N1c2ccccc2NC2=C(C(=O)CCC2)C1c1ccc(F)cc1 (stereo not given)",
    "fluorescence intensity": 6490
  },
  {
    "compound": "C[C@H]1CN([C@@H](C)CO)C(=O)CCCn2cc(nn2)CO[C@@H]1CN(C)C(=O)Nc1ccccc1",
    "fluorescence intensity": 2950
  },
  {
    "compound": "O=C(NCCO)C(=O)NCC(c1ccc2c(c1)OCO2)N1CCN(c2ccc(F)cc2)CC1 (stereo not given)",
    "fluorescence intensity": 5880
  },
  {
    "compound": "O=C1c2ccccc2C(=O)N1c1ccccc1S(=O)C(F)(F)F (stereo not given)",
    "fluorescence intensity": 2440
  }
]
